Documented log10 IC50 across a set of compounds
assay: Inhibition of specific binding of [3H]gabapentin to Gabapentin binding sites located on the alpha-2-delta subunit of calcium channel.; design: species or system Oryctolagus cuniculus
measured property: log10 IC50 (log10 of the value in nM)

compound	log10 IC50
NCC1(CC(=O)O)CCOCC1	3.38
NCC1(CC(=O)O)CCSCC1	2.59
C[C@@H]1C[C@H](C)CC(CN)(CC(=O)O)C1 (stereo in doubt; 27)	2.15
CC1(C)CCCC(CN)(CC(=O)O)C1 (configuration not stated)	2.94
CC(C)C1CCCC(CN)(CC(=O)O)C1 (configuration not stated)	3.80
CC[C@H]1CC[C@@](CN)(CC(=O)O)CC1	2.85

====

experiment: Inhibition of specific binding of [3H]gabapentin to Gabapentin binding sites located on the alpha-2-delta subunit of calcium channel.; design: species or system Oryctolagus cuniculus
measured property: IC50

compound	obs value
CC1CCCC(CN)(CC(=O)O)C1 (stereo not drawn)	> 10 µM
CCCC1CCCC(CN)(CC(=O)O)C1 (stereo not drawn)	3.3 µM
NCC1(CC(=O)O)CCCCC1C1CCCCC1 (stereo not drawn)	> 10 µM
NCC1(CC(=O)O)CCNCC1	> 10 µM
C[C@@H]1CCC[C@@](CN)(CC(=O)O)C1	0.042 µM
C[C@H]1CCC[C@](CN)(CC(=O)O)C1	0.073 µM
C[C@H]1CC[C@](CN)(CC(=O)O)CC1	> 10 µM
COC1CCCCC1(CN)CC(=O)O (stereo not drawn)	> 10 µM

====

Documented pIC50 across a set of molecules
assay: Inhibition of specific binding of [3H]gabapentin to Gabapentin binding sites located on the alpha-2-delta subunit of calcium channel.; set-up: species or system Oryctolagus cuniculus
pIC50: −log10 of the molar value.

molecule	pIC50
CC1(C)CC(C)(C)CC(CN)(CC(=O)O)C1	< 5.00
C[C@@H]1C[C@H](C)CC(CN)(CC(=O)O)C1 (stereo in doubt; 28)	< 5.00
NCC1(CC(=O)O)CCCC(c2ccccc2)C1 (stereo not drawn)	< 5.00

Recorded values, source ChEMBL document CHEMBL1131620.
